Below: a set of entries, each annotated with reported protein stability index.
B1: SASS6 (parent)
chain: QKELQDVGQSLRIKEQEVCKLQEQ

# Variants of: B1
# Assay comment: protein stability index of a GFP-peptide fusion (GPS, HEK-293T) (PSI 1-6); higher = more stable;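 note: lentivirally expressed fusions sorted by FACS into six bins by GFP to DsRed ratio, PSI derived from sequencing read proportions per bin multiplied by bin number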
# Condition set: c terminus: a fixed tail appended

{"Variant code": "E15L", "protein stability index": 4.15}
{"Variant code": "L4G", "protein stability index": 5.59}
{"Variant code": "Q22L", "protein stability index": 4.44}
{"Variant code": "E3W", "protein stability index": 3.84}
{"Variant code": "C19E", "protein stability index": 5.78}
{"Variant code": "L11G", "protein stability index": 5.88}
{"Variant code": "E3G", "protein stability index": 4.68}
{"Variant code": "K2L", "protein stability index": 4.97}
{"Variant code": "I13K", "protein stability index": 5.29}
{"Variant code": "D6H", "protein stability index": 4.62}
{"Variant code": "K14S", "protein stability index": 5.33}
{"Variant code": "Q16A", "protein stability index": 5.12}
{"Variant code": "Q9P", "protein stability index": 5.56}
{"Variant code": "E15I", "protein stability index": 2.8}
{"Variant code": "I13S", "protein stability index": 5.45}
{"Variant code": "Q9H", "protein stability index": 5.05}
{"Variant code": "Q1F", "protein stability index": 4.25}
{"Variant code": "D6K", "protein stability index": 5.23}
{"Variant code": "R12H", "protein stability index": 5.41}
{"Variant code": "L11W", "protein stability index": 5.11}
{"Variant code": "Q22T", "protein stability index": 5.06}
{"Variant code": "Q24W", "protein stability index": 4.84}
{"Variant code": "Q5N", "protein stability index": 5.3}
{"Variant code": "Q5W", "protein stability index": 4.79}
{"Variant code": "L11S", "protein stability index": 5.47}
{"Variant code": "Q5M", "protein stability index": 5.16}
{"Variant code": "K14F", "protein stability index": 4.38}
{"Variant code": "Q1N", "protein stability index": 5.75}
{"Variant code": "L11Y", "protein stability index": 5.21}
{"Variant code": "E23I", "protein stability index": 4.4}
{"Variant code": "G8M", "protein stability index": 4.98}
{"Variant code": "V18W", "protein stability index": 4.28}
{"Variant code": "C19S", "protein stability index": 5.53}
{"Variant code": "Q22D", "protein stability index": 5.58}
{"Variant code": "V18H", "protein stability index": 5.11}
{"Variant code": "I13T", "protein stability index": 5.13}
{"Variant code": "V18R", "protein stability index": 5.62}
{"Variant code": "K2S", "protein stability index": 5.43}
{"Variant code": "S10H", "protein stability index": 4.89}
{"Variant code": "Q16S", "protein stability index": 5.56}
{"Variant code": "Q16K", "protein stability index": 5.48}
{"Variant code": "Q22I", "protein stability index": 4.69}
{"Variant code": "E3C", "protein stability index": 4.83}
{"Variant code": "E17Y", "protein stability index": 4.22}
{"Variant code": "C19F", "protein stability index": 5.35}
{"Variant code": "E23M", "protein stability index": 4.24}
{"Variant code": "L4S", "protein stability index": 5.41}
{"Variant code": "L4Y", "protein stability index": 4.98}
{"Variant code": "S10G", "protein stability index": 4.74}
{"Variant code": "V7P", "protein stability index": 4.8}
{"Variant code": "Q5S", "protein stability index": 5.16}
{"Variant code": "K2I", "protein stability index": 4.88}
{"Variant code": "E3M", "protein stability index": 4.02}
{"Variant code": "K2M", "protein stability index": 5.1}
{"Variant code": "D6F", "protein stability index": 3.81}
{"Variant code": "Q9Y", "protein stability index": 4.87}
{"Variant code": "E15C", "protein stability index": 4.11}
{"Variant code": "V18E", "protein stability index": 5.95}
{"Variant code": "L11C", "protein stability index": 5.09}
{"Variant code": "V7F", "protein stability index": 4.73}
{"Variant code": "C19Q", "protein stability index": 5.61}
{"Variant code": "I13V", "protein stability index": 5.44}
{"Variant code": "E23Q", "protein stability index": 4.71}
{"Variant code": "L21W", "protein stability index": 4.92}
{"Variant code": "G8P", "protein stability index": 4.75}
{"Variant code": "E17K", "protein stability index": 5.25}
{"Variant code": "E23S", "protein stability index": 4.82}
{"Variant code": "K20I", "protein stability index": 5.15}
{"Variant code": "I13W", "protein stability index": 4.57}
{"Variant code": "V7K", "protein stability index": 5.16}
{"Variant code": "V18T", "protein stability index": 4.74}
{"Variant code": "E15F", "protein stability index": 3.24}
{"Variant code": "E3N", "protein stability index": 4.88}
{"Variant code": "Q24V", "protein stability index": 4.92}
{"Variant code": "L4I", "protein stability index": 5.34}
{"Variant code": "K14G", "protein stability index": 5.46}
{"Variant code": "R12Q", "protein stability index": 5.75}
{"Variant code": "V7G", "protein stability index": 5.41}
{"Variant code": "R12C", "protein stability index": 4.81}
{"Variant code": "V18L", "protein stability index": 5.25}
{"Variant code": "E15M", "protein stability index": 4.54}
{"Variant code": "L11F", "protein stability index": 5.26}
{"Variant code": "K2H", "protein stability index": 5.46}
{"Variant code": "V7R", "protein stability index": 5.39}
{"Variant code": "E15A", "protein stability index": 5.01}
{"Variant code": "R12W", "protein stability index": 4.84}
{"Variant code": "Q22H", "protein stability index": 4.79}
{"Variant code": "L4N", "protein stability index": 5.1}
{"Variant code": "Q9N", "protein stability index": 5.67}
{"Variant code": "S10Y", "protein stability index": 4.32}
{"Variant code": "E17L", "protein stability index": 4.77}
